# System: H9c2
# test.protocol: Cardioprotective activity against rat H9c2 cells assessed as reduction in doxorubicin-induced cardiotoxicity by measuring cell viability at 20 uM incubated for 24 hrs in presence of doxorubicin by MTT assay
# Format: functional
assay.endpoint: Activity (%)
Numbers only, in %.

Some compounds with recorded Activity:
{"columns": ["chemical.string", "system.under.test", "result.unit", "Activity"],
 "data": [
  ["CCCCCCCCCCCC1=C(O)C(=O)c2c(nc3ccc(OC)cc3c2-c2ccc([N+](=O)[O-])cc2)C1=O", "H9c2", "%", 84.3],
  ["CCCCCCCCCCCC1=C(O)C(=O)c2c(nc3ccccc3c2-c2ccc(F)cc2)C1=O", "H9c2", "%", 81.4],
  ["CCCCCCCCCCCC1=C(O)C(=O)c2c(nc3ccc(Br)cc3c2-c2ccc([N+](=O)[O-])cc2)C1=O", "H9c2", "%", 91.2]
]}

Prompt: What value of Activity has been reported for the following compound? CCCCCCCCCCCC1=C(O)C(=O)c2c(nc3ccccc3c2-c2ccc(Br)cc2)C1=O
Response: 83.4
